EXPERIMENTAL SYSTEM: T1, His-tagged CEACAM1 (human, UniProt P13688 35-428)
T1 construct: 45 kDa SPR analyte; also called CEACAM1-HIS; CEACAM1 analyte
T1 sequence: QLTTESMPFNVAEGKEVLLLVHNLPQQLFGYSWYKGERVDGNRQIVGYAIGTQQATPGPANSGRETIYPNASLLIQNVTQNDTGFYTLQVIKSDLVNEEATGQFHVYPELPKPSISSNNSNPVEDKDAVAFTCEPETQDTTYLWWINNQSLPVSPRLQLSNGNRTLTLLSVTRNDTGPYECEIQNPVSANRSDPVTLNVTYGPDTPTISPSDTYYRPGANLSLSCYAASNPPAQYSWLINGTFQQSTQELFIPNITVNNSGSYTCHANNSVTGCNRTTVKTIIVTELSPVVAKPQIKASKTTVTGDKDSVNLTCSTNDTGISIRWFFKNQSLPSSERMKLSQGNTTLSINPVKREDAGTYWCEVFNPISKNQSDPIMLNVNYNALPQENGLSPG
EXPERIMENT: SPR single-cycle, supernatant IgG captured
koff by entry:
Enter the number, and then the unit.

Example entries begin here.
CP09C02/CP08G09 (antibody, IgG4, V domains shown, IgG4 (S241P), kappa) VH: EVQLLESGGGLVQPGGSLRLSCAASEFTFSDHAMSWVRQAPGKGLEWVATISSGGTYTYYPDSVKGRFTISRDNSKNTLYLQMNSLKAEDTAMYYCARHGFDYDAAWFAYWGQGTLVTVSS VL: EIVLTQSPATLSLSPGERATLSCRANSAVSYMYWYQQKPGQAPRPWIYLTSNRATGVPARFSGSGSGTDYTLTISSLEPEDFAVYYCQQWTAFPPTFGQGTKLEIK ... 0.018 s⁻¹
VH1/Vκ8 S29A (antibody, IgG4, V domains shown, IgG4 (S241P), kappa; also called Parent; Parent (VH1/Vκ8 S29A)) VH: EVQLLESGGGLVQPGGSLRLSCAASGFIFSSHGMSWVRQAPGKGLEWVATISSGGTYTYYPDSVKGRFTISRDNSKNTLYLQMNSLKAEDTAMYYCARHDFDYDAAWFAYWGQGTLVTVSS VL: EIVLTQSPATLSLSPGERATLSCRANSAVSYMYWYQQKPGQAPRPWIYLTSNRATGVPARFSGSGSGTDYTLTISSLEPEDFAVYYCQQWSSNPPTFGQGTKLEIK ... 0.053 s⁻¹
CP09B03/CP08E01 (antibody, IgG4, V domains shown, IgG4 (S241P), kappa) VH: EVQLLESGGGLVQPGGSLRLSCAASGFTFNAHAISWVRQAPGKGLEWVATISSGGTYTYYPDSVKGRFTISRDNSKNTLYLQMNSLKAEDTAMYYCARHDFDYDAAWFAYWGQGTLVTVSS VL: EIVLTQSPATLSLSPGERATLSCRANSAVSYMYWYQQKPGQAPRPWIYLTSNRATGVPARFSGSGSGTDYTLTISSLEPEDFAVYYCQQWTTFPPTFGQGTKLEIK ... 0.046 s⁻¹
CP09B03/CP08G09 (antibody, IgG4, V domains shown, IgG4 (S241P), kappa) VH: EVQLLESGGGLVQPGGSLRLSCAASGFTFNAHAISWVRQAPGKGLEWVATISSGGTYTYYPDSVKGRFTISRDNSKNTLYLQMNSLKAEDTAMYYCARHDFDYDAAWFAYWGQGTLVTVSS VL: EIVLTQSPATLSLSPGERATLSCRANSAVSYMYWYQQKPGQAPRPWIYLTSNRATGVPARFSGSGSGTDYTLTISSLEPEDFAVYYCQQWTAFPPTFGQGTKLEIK ... 0.037 s⁻¹

Name the recorded koff of the item CP09C02/CP08D02 (antibody, IgG4, V domains shown, IgG4 (S241P), kappa) VH: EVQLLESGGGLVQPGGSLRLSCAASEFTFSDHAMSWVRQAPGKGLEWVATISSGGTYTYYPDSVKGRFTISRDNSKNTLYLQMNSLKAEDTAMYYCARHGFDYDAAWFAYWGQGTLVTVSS VL: EIVLTQSPATLSLSPGERATLSCRANSAVSYMYWYQQKPGQAPRPWIYLTSNRATGVPARFSGSGSGTDYTLTISSLEPEDFAVYYCQQWTSFPPTFGQGTKLEIK in your answer.
0.022 s⁻¹
